# Test system: KM-20L2
# Protocol description: NCI tumour cell line growth inhibition, 48 h
Where a name gives a salt, the structure may show the parent alone. Calls of active or inactive are those of the source. No stated cut-off is given here; in the data, active = GI50 up to about 1.1 µM and inactive = higher.
Provide the reported GI50 of each item.

Request: GET GI50 where system = KM-20L2 and item = COC(=O)C1=NC(=S)NC(c2ccccc2)C1c1nc2ccccc2s1 (stereo not given)
Result: > 100 µM (inactive)

Request: GET GI50 where system = KM-20L2 and item = `CCN(CC)CC[n+]1ccc2c(C)c3[nH]c4ccc(O)cc4c3c(C)c2c1`
Result: 8.47 µM (inactive)

Request: GET GI50 where system = KM-20L2 and item = CCc1cccc(C(C)C)c1NC(=O)C(=O)C(C(=O)C(=O)OC)c1nc2ccccc2nc1O (stereo not given)
Result: > 100 µM (inactive)

Request: GET GI50 where system = KM-20L2 and item = `N#C/C(=C\c1cccc(Cl)c1Cl)c1ccccc1`
Result: > 100 µM (inactive)

Request: GET GI50 where system = KM-20L2 and item = CC(/C=C/C=C\C=C\C=C(/C)C(=O)NC(C)CO)=C\C(C)C(O)/C(C)=C/C(C)CCc1ccccc1 (stereo not given)
Result: 11.1 µM (inactive)

Request: GET GI50 where system = KM-20L2 and item = CC1=C2C(O)C(C(C)C(=O)NC(C)C)CCC2(C)C=CC1=O (stereo not given)
Result: > 100 µM (inactive)

Request: GET GI50 where system = KM-20L2 and item = `COc1ccccc1NC(=O)CC(=O)n1nc(C)c(/N=N/c2ccccc2Cl)c1C`
Result: > 100 µM (inactive)

Request: GET GI50 where system = KM-20L2 and item = NC1=NN(c2ccccc2)C(=O)C1/C(=N\NC(=O)c1cc2ccccc2cc1O)C(=O)Nc1nc([N+](=O)[O-])cs1 (stereo not given)
Result: 40.9 µM (inactive)

Request: GET GI50 where system = KM-20L2 and item = CC(NC(C)(C)C)C(=O)c1cccc(Cl)c1 (stereo not given) [BUPROPION HYDROCHLORIDE]
Result: > 100 µM (inactive)

Request: GET GI50 where system = KM-20L2 and item = CC(=O)OCC(OC(C)=O)C(OC(C)=O)C(OC(C)=O)C(=O)CNn1c(-c2ccccc2Cl)nc2ccccc2c1=O (stereo not given)
Result: > 100 µM (inactive)

Request: GET GI50 where system = KM-20L2 and item = `O=c1[nH]c(=O)n([C@H]2C[C@@H](CO)[C@@H](O)C2)cc1I`
Result: > 100 µM (inactive)

Request: GET GI50 where system = KM-20L2 and item = `CCCc1cc(OC(=O)c2c(O)cc(OC)cc2CCC)cc(O)c1C(=O)O`
Result: 37.4 µM (inactive)

Request: GET GI50 where system = KM-20L2 and item = `O=C(/C=C/c1ccco1)c1ccc(NCc2nc3ccccc3[nH]2)cc1`
Result: 18.7 µM (inactive)

Request: GET GI50 where system = KM-20L2 and item = CCOC(=O)N1CCN(P(=O)(Nc2ccc3[nH]c(NC(=O)OC)nc3c2)Oc2ccccc2)CC1 (stereo not given)
Result: > 100 µM (inactive)

Request: GET GI50 where system = KM-20L2 and item = COc1cc2c(cc1OC)C1C=NC(C(=O)O)(C2)c2ccccc21 (stereo not given)
Result: > 100 µM (inactive)
